Experiment: Enzyme kinetic study of 7β-HSDH mutants, DHCA kinetics with NADH as cofactor
Assay type: biochemical
Details: 0.5 mM NADH, substrate DHCA
vmax (maximal specific enzyme activity) for assorted molecules
readout_name: vmax (maximal specific enzyme activity) (U mg^−1)

[[record]]
molecule = "G39D R40I: previously reported 7β-HSDH double mutant G39D R40I, reference, previously most active mutant (protein) MNLREKYGEWGLILGATEGVGKAFCEKIAAGGMNVVMVDIREEKLNVLAGEIRETYGVETKVVRADFSQPGAAETVFAATEGLDMGFMSYVACLHSFGKIQDTPWEKHEAMINVNVVTFLKCFHHYMRIFAAQDRGAVINVSSMTGISSSPWNGQYGAGKAFILKMTEAVACECEGTGVDVEVITLGTTLTPSLLSNLPGGPQGEAVMKIALTPEECVDEAFEKLGKELSVIAGQRNKDSVHDWKANHTEDEYIRYMGSFYRD"
reported = 4.64

[[record]]
molecule = "DFKG: 7β-HSDH mutant with amino acid substitutions G39D R40F R41K K44G compared to the wild type sequence (protein) MNLREKYGEWGLILGATEGVGKAFCEKIAAGGMNVVMVDFKEEGLNVLAGEIRETYGVETKVVRADFSQPGAAETVFAATEGLDMGFMSYVACLHSFGKIQDTPWEKHEAMINVNVVTFLKCFHHYMRIFAAQDRGAVINVSSMTGISSSPWNGQYGAGKAFILKMTEAVACECEGTGVDVEVITLGTTLTPSLLSNLPGGPQGEAVMKIALTPEECVDEAFEKLGKELSVIAGQRNKDSVHDWKANHTEDEYIRYMGSFYRD"
reported = 5.72

